Origin of measurements: patent US20230365592A1

The entries below come with measured AC50 values attached.
Target Desc: human PAH with the R408W mutation (Homo sapiens, UniProt P00439, R408W)
Construct: expressed in transfected cells
Protocol Details: Cell Based Phenylalanine Flux Assay
Measurement Setup: A375 cells expressing human PAH R408W; 24 hrs compound incubation; 13C-Tyrosine by LC-MS; average where tested multiple times; read-out: AC50
Property: AC50

- Cc1cccnc1-c1nnc(N2CCc3[nH]cnc3[C@H]2c2cc3c(C(C)C)cccn3n2)o1: < 500 nM
- O=C(c1cnn(CC(F)(F)F)c1C(F)F)N1CCc2[nH]cnc2[C@H]1c1cc2ccccn2n1: 1000 to 5000 nM
- Fc1cccc(F)c1-c1nnc(N2CCc3[nH]cnc3[C@H]2c2cc3cccc(C(F)F)n3n2)o1: < 500 nM
- CC(C)c1cccn2nc([C@H]3c4nc[nH]c4CCN3C(=O)c3nnc(-c4ccn(C)n4)o3)cc12: > 5000 nM
- Cc1cccn2nc([C@H]3c4nc[nH]c4CCN3C(=O)c3nc4ccccc4s3)cc12: > 5000 nM
- O=C(c1nnc(-c2cnn(C(F)F)c2)o1)N1CCc2[nH]cnc2[C@H]1c1cc2c(C3CC3)cccn2n1: 500 to 1000 nM
- Cc1c[nH]nc1-c1nnc(C(=O)N2CCc3[nH]cnc3[C@H]2c2cc3c(C)cccn3n2)o1: < 500 nM
- CC(C)c1nnc(N2CCc3[nH]cnc3[C@@H]2c2cc3c(F)cccn3n2)o1: > 5000 nM
- Cc1cccnc1-c1nnc(N2CCc3[nH]cnc3[C@H]2c2cc3cccc(C)n3n2)o1: 500 to 1000 nM
- Cc1cccnc1-c1nnc(N2CCc3[nH]cnc3[C@@H]2c2cc3c(C)cccn3n2)o1: > 5000 nM
- O=C(c1nnc(-c2ccn(C(F)F)n2)o1)N1CCc2[nH]cnc2[C@@H]1c1cc2c(C3CC3)cccn2n1: > 5000 nM
- Cc1c(-c2nnc(C(=O)N3CCc4[nH]cnc4[C@@H]3c3cc4c(C5CC5)cccn4n3)o2)cnn1C: 1000 to 5000 nM
- O=C(c1nc2ccccc2o1)N1CCc2[nH]cnc2[C@@H]1c1cc2c(C(F)F)cccn2n1: > 5000 nM
- CC1(c2nnc(N3CCc4[nH]cnc4[C@H]3c3cc4c(Cl)cccn4n3)o2)CC1: 500 to 1000 nM
- Fc1ncccc1-c1nnc(N2CCc3[nH]cnc3[C@H]2c2cc3c(Cl)cccn3n2)o1: 500 to 1000 nM

###

Target Desc: human PAH with the R408W mutation (Homo sapiens, UniProt P00439, R408W)
Construct: expressed in transfected cells
Protocol Details: Cell Based Phenylalanine Flux Assay
Measurement Setup: A375 cells expressing human PAH R408W; 24 hrs compound incubation; 13C-Tyrosine by LC-MS; average where tested multiple times; read-out: AC50
Property: AC50

* CN(C)c1ccc2c(C(=O)N3CCc4[nH]cnc4[C@H]3c3cc4cccc(C(F)(F)F)n4n3)cnn2c1 | 1 to 5 µM
* Cc1cccn2nc([C@H]3c4nc[nH]c4CCN3C(=O)c3nnc(-c4cncnc4)o3)cc12 | > 5 µM
* CC(C)c1cccn2nc([C@H]3c4nc[nH]c4CCN3C(=O)c3nnc(-c4ccn(C(F)(F)F)n4)o3)cc12 | > 5 µM
* FC(F)Oc1cccn2nc([C@H]3c4nc[nH]c4CCN3c3ccc(C(F)(F)F)cn3)cc12 | > 5 µM
* Cn1cc(-c2nc(C3CC3)c(C(=O)N3CCc4[nH]cnc4[C@H]3c3cc4c(F)cccn4n3)o2)cn1 | 0.5 to 1 µM
* COCCc1ccc2c(C(=O)N3CCc4[nH]cnc4[C@H]3c3cc4c(C)cccn4n3)cnn2c1 | 1 to 5 µM
* Clc1cccn2nc([C@@H]3c4nc[nH]c4CCN3c3nnc(C4CCC4)o3)cc12 | 0.5 to 1 µM
* CC(C)c1cccn2nc([C@H]3c4nc[nH]c4CCN3c3ccc(C(F)(F)F)cn3)cc12 | > 5 µM
* O=C(c1cnc(-c2cnccn2)o1)N1CCc2[nH]cnc2[C@@H]1c1cc2c(F)cccn2n1 | > 5 µM
* O=C(c1nnc(-c2cnn(C(F)(F)F)c2)o1)N1CCc2[nH]cnc2[C@H]1c1cc2ccccn2n1 | 1 to 5 µM
* Cc1cccn2nc([C@H]3c4nc[nH]c4CCN3C(=O)c3cnc(-c4cnn(C)c4)o3)cc12 | > 5 µM
* Cc1cccn2nc([C@H]3c4nc[nH]c4CCN3c3cnccn3)cc12 | 1 to 5 µM
* CC(C)c1cccn2nc([C@@H]3c4nc[nH]c4CCN3c3nnc(-c4ccncn4)o3)cc12 | 0.5 to 1 µM
* COc1cccn2nc([C@H]3c4nc[nH]c4CCN3c3ncccn3)cc12 | 1 to 5 µM
* FC(F)Oc1cccn2nc([C@H]3c4nc[nH]c4CCN3c3cnccn3)cc12 | > 5 µM
* COc1ccc2c(C(=O)N3CCc4[nH]cnc4[C@@H]3c3cc4cccc(Cl)n4n3)cnn2c1 | > 5 µM

###

The entries below come with measured AC50 values attached.
Target Desc: human PAH with the R408W mutation (Homo sapiens, UniProt P00439, R408W)
Construct: expressed in transfected cells
Sequence (P00439 1-452 R408W): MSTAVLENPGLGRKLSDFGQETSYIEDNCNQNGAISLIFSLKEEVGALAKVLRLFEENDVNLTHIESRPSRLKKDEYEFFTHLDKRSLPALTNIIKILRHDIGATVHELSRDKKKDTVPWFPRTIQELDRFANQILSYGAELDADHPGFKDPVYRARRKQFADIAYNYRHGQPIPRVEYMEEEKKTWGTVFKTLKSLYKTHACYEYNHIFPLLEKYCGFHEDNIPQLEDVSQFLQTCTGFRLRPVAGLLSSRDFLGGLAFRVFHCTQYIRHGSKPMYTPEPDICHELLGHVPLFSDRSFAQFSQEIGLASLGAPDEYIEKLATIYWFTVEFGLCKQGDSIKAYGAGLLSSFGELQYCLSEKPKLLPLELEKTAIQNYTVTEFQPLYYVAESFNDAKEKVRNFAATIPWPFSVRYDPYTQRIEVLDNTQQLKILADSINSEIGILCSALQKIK
Protocol Details: Cell Based Phenylalanine Flux Assay
Measurement Setup: A375 cells expressing human PAH R408W; 24 hrs compound incubation; 13C-Tyrosine by LC-MS; average where tested multiple times; read-out: AC50
Property: AC50

* CC(C)c1cccn2nc([C@H]3c4nc[nH]c4CCN3c3nnc(-c4cccnc4)o3)cc12 [Example 2260] | > 5000 nM
* c1cnc(N2CCc3[nH]cnc3[C@H]2c2cc3c(C4CC4)cccn3n2)nc1 [Example 2172] | < 500 nM
* O=C(c1nnc(C2CC2)s1)N1CCc2[nH]cnc2[C@H]1c1cc2c(F)cccn2n1 [Example 1993] | < 500 nM
* Fc1cccn2nc([C@@H]3c4nc[nH]c4CCN3c3ccc(C(F)(F)F)cn3)cc12 [Example 1943] | < 500 nM

###

Target Desc: human PAH with the R408W mutation (Homo sapiens, UniProt P00439, R408W)
Construct: expressed in transfected cells
Protocol Details: Cell Based Phenylalanine Flux Assay;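 further: after compound treatment, cells received sepiapterin plus isotope-labelled Phenylalanine for 4 hours, then labelled Tyrosine in the medium was quantified, 10-point 2-fold dilution series run in duplicate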
Measurement Setup: A375 cells expressing human PAH R408W; 24 hrs compound incubation; 13C-Tyrosine by LC-MS; average where tested multiple times; read-out: AC50
Property: AC50

* Cc1cccc2cc([C@H]3c4nc[nH]c4CCN3c3nnc(-c4ccc(F)cc4)o3)nn12 [Example 2011] | > 5 µM
* CC(C)c1cccn2nc([C@@H]3c4nc[nH]c4CCN3C(=O)c3nnc(-c4ncccn4)o3)cc12 [Example 1981] | 0.5 to 1 µM
* CC(C)c1cccn2nc([C@@H]3c4nc[nH]c4CCN3C(=O)c3nnc(-c4ccn(C(F)(F)F)n4)o3)cc12 [Example 1984] | < 0.5 µM
* Cc1cccc2cc([C@@H]3c4nc[nH]c4CCN3C(=O)c3nnc(-c4cn(C)cn4)o3)nn12 [Example 2395] | 1 to 5 µM
* Cc1cccn2nc([C@H]3c4nc[nH]c4CCN3C(=O)c3cnc(-c4cnccn4)o3)cc12 [Example 2241] | > 5 µM
* CC(C)c1nnc(N2CCc3[nH]cnc3[C@H]2c2cc3ccccn3n2)o1 [Example 2301] | 0.5 to 1 µM
* FC(F)(F)Oc1cccn2nc([C@@H]3c4nc[nH]c4CCN3c3ncccn3)cc12 [Example 2270] | < 0.5 µM
* Fc1cccc(N2CCc3[nH]cnc3[C@@H]2c2cc3c(F)cccn3n2)n1 [Example 1954] | 1 to 5 µM
* Cc1cccc2cc([C@H]3c4nc[nH]c4CCN3c3nnc(C(F)(F)F)o3)nn12 [Example 1851] | 1 to 5 µM
* Cn1cc(-c2nnc(C(=O)N3CCc4[nH]cnc4[C@@H]3c3cc4c(F)cccn4n3)s2)cn1 [Example 2019] | > 5 µM
* FC(F)Oc1cccn2nc([C@@H]3c4nc[nH]c4CCN3c3nnc(C(F)F)o3)cc12 [Example 2153] | < 0.5 µM
* Cc1ncccc1-c1nnc(N2CCc3[nH]cnc3[C@H]2c2cc3cccc(C)n3n2)o1 [Example 2332] | 0.5 to 1 µM
* O=C(c1ocnc1C1CC1)N1CCc2[nH]cnc2[C@H]1c1cc2cccc(Cl)n2n1 [Example 2042] | 0.5 to 1 µM
* O=C(c1ocnc1C1CC1)N1CCc2[nH]cnc2[C@H]1c1cc2cccc(C(F)F)n2n1 [Example 2112] | 0.5 to 1 µM
* Fc1ccc(-c2nnc(N3CCc4[nH]cnc4[C@H]3c3cc4cccc(Cl)n4n3)o2)cc1 [Example 2086] | < 0.5 µM
* Cc1cccn2nc([C@@H]3c4nc[nH]c4CCN3C(=O)c3nnc(-c4ccn(C)n4)s3)cc12 [Example 1998] | < 0.5 µM
